// data source = patent US20040214762A1

# Target Of Assay: purified recombinant human prolyl endopeptidase (Homo sapiens, UniProt P48147)
# Sequence (P48147 whole entry): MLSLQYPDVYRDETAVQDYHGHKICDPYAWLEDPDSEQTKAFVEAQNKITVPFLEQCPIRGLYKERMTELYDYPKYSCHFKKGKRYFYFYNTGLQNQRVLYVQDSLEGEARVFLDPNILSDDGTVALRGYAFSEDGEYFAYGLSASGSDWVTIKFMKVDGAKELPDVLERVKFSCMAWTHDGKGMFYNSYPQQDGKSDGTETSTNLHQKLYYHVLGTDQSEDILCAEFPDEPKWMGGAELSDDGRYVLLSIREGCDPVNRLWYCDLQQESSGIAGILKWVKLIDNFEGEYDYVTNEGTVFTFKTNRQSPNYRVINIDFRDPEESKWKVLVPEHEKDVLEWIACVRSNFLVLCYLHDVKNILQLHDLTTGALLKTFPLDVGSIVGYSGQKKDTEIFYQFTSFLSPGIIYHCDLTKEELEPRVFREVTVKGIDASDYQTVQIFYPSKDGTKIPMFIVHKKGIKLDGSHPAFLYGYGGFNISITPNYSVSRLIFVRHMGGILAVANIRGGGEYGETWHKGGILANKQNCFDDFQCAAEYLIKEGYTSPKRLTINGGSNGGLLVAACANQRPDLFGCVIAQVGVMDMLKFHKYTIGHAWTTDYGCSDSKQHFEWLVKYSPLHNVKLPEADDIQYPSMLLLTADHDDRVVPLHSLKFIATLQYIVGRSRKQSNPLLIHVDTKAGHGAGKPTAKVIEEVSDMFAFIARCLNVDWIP
# Assay: Determination of IC50 with Z-Gly-Pro-AMC
# Format: biochemical
# Experimental Setup: Z-Gly-Pro-AMC 10 μM, 37° C., 60 min
# Experimental: 100 μl inhibitor stock solution were mixed with 100 μl buffer (EPES pH7.6) and 50 μl substrate (Z-Gly-Pro-AMC, final concentration 10 μM). Reaction was started by addition of 20 μl purified recombinant human prolyl endopeptidase. Fluorescence measurement was performed at 37° C. and λexiatation=380 nm, λemission=465 nm for 60 min using a plate reader (HTS7000plus, Applied Biosystems, Weiterstadt, Germany). The final inhibitor concentrations ranged between 1 pM and 10 μM. […]
pIC50: −log10 of the molar value.

| Compound | pIC50 |
| --- | --- |
| CCC(C)C(NC(=O)OCc1ccccc1)C(=O)C1CCCC1 (stereo not shown) | 6.05 |
